Where do these numbers come from? They come from paper PMC4823038.

Target: CDK1 (Homo sapiens, UniProt P06493)
Sequence (P06493 whole entry): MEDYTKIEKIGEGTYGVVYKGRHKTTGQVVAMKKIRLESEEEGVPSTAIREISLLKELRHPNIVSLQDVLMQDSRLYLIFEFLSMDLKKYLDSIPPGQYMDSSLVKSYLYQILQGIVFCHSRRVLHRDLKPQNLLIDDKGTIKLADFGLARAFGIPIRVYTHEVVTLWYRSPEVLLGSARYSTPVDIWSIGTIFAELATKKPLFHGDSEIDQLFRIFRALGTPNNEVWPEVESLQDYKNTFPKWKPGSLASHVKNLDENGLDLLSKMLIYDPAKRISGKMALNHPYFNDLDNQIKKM
Sequence (P14635 whole entry partner): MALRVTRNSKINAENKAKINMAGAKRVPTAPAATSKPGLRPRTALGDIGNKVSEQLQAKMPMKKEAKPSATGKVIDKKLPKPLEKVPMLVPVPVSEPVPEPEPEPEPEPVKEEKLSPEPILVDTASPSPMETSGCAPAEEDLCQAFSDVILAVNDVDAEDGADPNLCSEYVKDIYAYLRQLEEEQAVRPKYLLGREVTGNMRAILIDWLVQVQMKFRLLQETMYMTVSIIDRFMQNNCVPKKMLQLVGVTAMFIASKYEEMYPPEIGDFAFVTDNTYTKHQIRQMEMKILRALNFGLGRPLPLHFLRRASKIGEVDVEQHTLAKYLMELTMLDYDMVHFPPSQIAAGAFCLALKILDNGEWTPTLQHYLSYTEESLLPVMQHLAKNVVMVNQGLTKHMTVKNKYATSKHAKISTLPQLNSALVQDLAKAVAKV
Experiment: CDK1 kinase IC50 determination (DELFIA / 33P radiometric)
Format: biochemical
REPORTED_ENDPOINT: IC50

Inquiry: Quote IC50 reported for N#Cc1cnc(Nc2cc(NC[C@H]3CNCCO3)c(C(F)(F)F)cn2)cn1 please.
Reply text: 1260 to 2440 nM

----------
Assay: Plasma protein binding
Assay type: in vitro ADME
Conditions: mouse, nude mice
REPORTED_ENDPOINT: fraction unbound at 10 μM
// keep it numeric: no unit symbol after the value

Inquiry: Quote fraction unbound at 10 μM reported for N#Cc1cnc(Nc2cc(NC[C@H]3CNCCO3)c(C(F)(F)F)cn2)cn1 please.
Reply text: 0.244
